- Experimental Target: T1, ΔNp63γ (Homo sapiens, UniProt Q9H3D4-6 1-393)
- T1 sequence: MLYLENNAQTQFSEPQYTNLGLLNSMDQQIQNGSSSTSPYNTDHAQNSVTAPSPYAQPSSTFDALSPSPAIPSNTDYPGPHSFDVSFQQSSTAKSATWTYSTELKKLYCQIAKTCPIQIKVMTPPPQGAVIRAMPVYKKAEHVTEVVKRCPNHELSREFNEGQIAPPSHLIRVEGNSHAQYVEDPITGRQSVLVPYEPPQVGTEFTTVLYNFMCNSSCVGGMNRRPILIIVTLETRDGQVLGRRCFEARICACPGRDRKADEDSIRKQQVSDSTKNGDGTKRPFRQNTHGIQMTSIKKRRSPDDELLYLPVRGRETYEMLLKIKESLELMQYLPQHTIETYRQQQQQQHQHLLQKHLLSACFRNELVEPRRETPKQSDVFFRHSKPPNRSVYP
- Experiment: fluorescence anisotropy competition titration; 25 mM sodium phosphate (purification buffer pH 7.2), 225 mM NaCl, 10% v/v glycerol, 5 mM DTT, 0.2 mg/mL BSA, 22 C
- Measurement Context: protein: recombinant; tags: N-terminal 6xHis-lipoyl-TEV tag, cleaved; chain copies: 4

{"columns": ["Binder", "Scale Unit", "Kd"],
 "data": [
  ["Ref competitor (dsDNA) DNA 1: CGCGGACATGTCCGGACATGTCCCGC DNA 2: GCGGGACATGTCCGGACATGTCCGCG", "nM", 33.1]
]}
